The reported measurements were obtained from patent US20240084003A1.

Assayed Target: T1, human CD22-ECD-His protein (human, UniProt P20273 20-687)
T1 construct: Made in house in HEK293E; also called hCD22-ECD-His; recombinant human CD22-ECD His protein; not shown: His tag
T1 sequence: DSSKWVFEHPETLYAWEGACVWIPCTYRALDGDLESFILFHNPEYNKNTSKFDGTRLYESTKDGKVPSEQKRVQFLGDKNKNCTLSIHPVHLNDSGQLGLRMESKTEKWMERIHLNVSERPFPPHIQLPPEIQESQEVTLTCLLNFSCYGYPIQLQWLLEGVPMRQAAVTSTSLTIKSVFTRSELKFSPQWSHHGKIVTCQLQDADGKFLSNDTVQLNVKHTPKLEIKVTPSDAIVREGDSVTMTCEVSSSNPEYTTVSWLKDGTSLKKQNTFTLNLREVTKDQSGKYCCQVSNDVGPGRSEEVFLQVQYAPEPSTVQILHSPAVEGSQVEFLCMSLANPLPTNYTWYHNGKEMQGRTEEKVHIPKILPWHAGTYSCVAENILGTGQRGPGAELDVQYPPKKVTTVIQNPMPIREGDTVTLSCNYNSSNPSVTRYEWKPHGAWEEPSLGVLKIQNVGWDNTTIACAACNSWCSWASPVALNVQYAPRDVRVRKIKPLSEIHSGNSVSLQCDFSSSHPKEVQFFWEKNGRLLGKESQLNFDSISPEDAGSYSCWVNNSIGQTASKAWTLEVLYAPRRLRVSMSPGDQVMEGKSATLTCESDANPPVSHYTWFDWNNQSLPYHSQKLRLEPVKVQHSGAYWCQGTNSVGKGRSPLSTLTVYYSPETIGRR
Experiment: ELISA, Ab 0.01 nM
Protocol: In order to detect the binding activity of CD22 human-murine chimeric antibodies to CD22 protein, the purified human CD22-ECD-His protein obtained in Example 2 was diluted with PBS to a final concentration of 2 μg/mL, and then added to 96-well ELISA plate at 100 μl/well. The plate was sealed with plastic film and incubated overnight at 4° C., the plate was washed 2 times with PBS the next day, and then a blocking solution [PBS+2% (w/w) BSA] was added for blocking at room temperature for 2 hours. […]
The following binders are listed with their measured OD450 values.

>  <Binder>
F1.200.11 (antibody, human IgG1, kappa, V domains shown, Human-murine chimeric IgG1, kappa) VH: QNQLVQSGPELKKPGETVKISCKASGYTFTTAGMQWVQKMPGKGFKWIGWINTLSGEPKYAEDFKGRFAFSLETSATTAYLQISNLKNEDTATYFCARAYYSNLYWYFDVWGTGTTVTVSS VL: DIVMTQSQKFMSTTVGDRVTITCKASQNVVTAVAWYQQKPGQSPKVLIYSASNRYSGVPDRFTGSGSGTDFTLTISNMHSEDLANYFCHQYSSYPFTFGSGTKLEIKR

>  <Output Unit>
OD450

>  <OD450>
2

$$$$
>  <Binder>
F1.257.3 (antibody, human IgG1, kappa, V domains shown, Human-murine chimeric IgG1, kappa) VH: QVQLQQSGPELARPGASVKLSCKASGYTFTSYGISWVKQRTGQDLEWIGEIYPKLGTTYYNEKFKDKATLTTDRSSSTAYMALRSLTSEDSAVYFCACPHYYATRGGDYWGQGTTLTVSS VL: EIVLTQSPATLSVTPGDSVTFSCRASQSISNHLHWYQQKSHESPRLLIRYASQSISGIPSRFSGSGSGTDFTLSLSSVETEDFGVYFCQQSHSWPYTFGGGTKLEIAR

>  <Output Unit>
OD450

>  <OD450>
1.66

$$$$
>  <Binder>
F1.105.11 (antibody, human IgG1, kappa, V domains shown, Human-murine chimeric IgG1, kappa) VH: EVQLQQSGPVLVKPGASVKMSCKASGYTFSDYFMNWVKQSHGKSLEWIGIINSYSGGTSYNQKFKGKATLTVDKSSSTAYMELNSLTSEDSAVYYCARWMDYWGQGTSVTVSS VL: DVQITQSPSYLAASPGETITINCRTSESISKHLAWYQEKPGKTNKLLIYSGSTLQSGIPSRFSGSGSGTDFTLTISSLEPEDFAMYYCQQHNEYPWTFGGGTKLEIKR

>  <Output Unit>
OD450

>  <OD450>
1.93

$$$$
